test system: MS2 coat protein; experiment: apparent KD of MS2 coat protein; designed switch direction (-1 OFF switch, 1 ON switch): 1; higher = weaker reporter binding; conditions: input ligand: FMN 200 uM

>  <constructSequence>
GGUAUCGACACAGGAUAUGCUAUCCUUUGGGUAGCAGAAGGGUGGACAUGAGGAUCACCCAUGUGGGUGCCAGGGCGUGAGCCC [JL SSNG1 1.84] (Eterna round: R96, puzzle: Same State NG 1)

>  <apparent KD of MS2 coat protein (nM)>
234

$$$$
>  <constructSequence>
GCUCGACUGAUGGCCUACAUGAGGAUCACCCAUGUGAUUGGGCAGGAUAUCUAGAUGCAGGAUGUAGAGAAGGGCCAGUCGAGC [SameState NG3 #45] (Eterna round: R96, puzzle: Same State NG 3)

>  <apparent KD of MS2 coat protein (nM)>
1130

$$$$
>  <constructSequence>
AGCGAACAUGAGGAUCACCCAUGUAGACCGCGUGUGAUAACACAGGAUAUCAAAGGAAGAAGGAGUGAGAAGGGUGGGAAGGAG [Default title] (Eterna round: R96, puzzle: Same State NG 3)

>  <apparent KD of MS2 coat protein (nM)>
93.6

$$$$

* * *

system: MS2 coat protein; experiment: apparent KD of MS2 coat protein; designed switch direction (-1 OFF switch, 1 ON switch): -1; higher = weaker reporter binding; conditions: input ligand: microRNA oligo, concentration not stated
The entries below come with measured apparent KD of MS2 coat protein values attached.
measuredParameter: apparent KD of MS2 coat protein (nM)

>  <constructSequence>
UUAAAUCAUGUAGGAUAUGCGUGGCGAAGCUAUGCAGAAGGACAUGAGGAUCACCCAUGUGCUGCGGUCUGCGUACAGAUCGCU [JL ENG1 1.03] (Eterna round: R96, puzzle: Exclusion NG 1)

>  <measuredParameter>
apparent KD of MS2 coat protein

>  <val>
76.4

$$$$
>  <constructSequence>
AACAAAACGCGAGGAUAUCGCCAACAUGAGGAUCACCCAUGUCACGGGUGCAAAUGUCUUCUAGGCGAGAAGGCGCAUCCAUAC [Diatza] (Eterna round: R96, puzzle: Exclusion NG 2)

>  <measuredParameter>
apparent KD of MS2 coat protein

>  <val>
344

$$$$
>  <constructSequence>
UUAAUUAAUUGACUGCAAGAUCAACAUGAGGAUCACCCAUGUGAGGAUAUCAGCUCGUUUAGAGCUGAGAAGGCACAAGCAGUC [ExNG3/16-A2] (Eterna round: R96, puzzle: Exclusion NG 3)

>  <measuredParameter>
apparent KD of MS2 coat protein

>  <val>
16.7

$$$$
>  <constructSequence>
GUGCUAUAGGAAGGAUAUACUUCAUUAUUUAGACAUGAGGAUCACCCAUGUAACCUUAUGUAUGUGUAGAAGGUCCAUAGCUUA (Eterna round: R96, puzzle: Exclusion NG 2)

>  <measuredParameter>
apparent KD of MS2 coat protein

>  <val>
35.1

$$$$
>  <constructSequence>
UGUUGUCGCGUAGGAUAUGAGGAUCACCCAUAGAAGGAUAUCGAAAGAGAAGGUCUGAGGAUUACCCAGAAGGACGGGACAACU [pwkr exNG2 2xF5 2xFMN.14] (Eterna round: R96, puzzle: Exclusion NG 2)

>  <measuredParameter>
apparent KD of MS2 coat protein

>  <val>
160

$$$$
>  <constructSequence>
ACAUGAGGAUCACCCAUGUGACAAUAAUGGCUGAUACAGAGACAGGAUAUUCGUGAAUAUCUAACGAAGAAGGGUCAUGACUGG [Deportation 69 - Jieux - Exclusion NG 3] (Eterna round: R96, puzzle: Exclusion NG 3)

>  <measuredParameter>
apparent KD of MS2 coat protein

>  <val>
45.7

$$$$
>  <constructSequence>
GCGGGCCCGGGAGGAUAUACAUGAGGAUCACCCAUGUGGGCCCGGGCCCGCGGGCCCGGGCCCGUGUAGAAGGCCCGGGCCCGC [-64.9, -63.3 kcal, A 14%] (Eterna round: R96, puzzle: Exclusion NG 2)

>  <measuredParameter>
apparent KD of MS2 coat protein

>  <val>
10.1

$$$$
>  <constructSequence>
UGCGAAGAGUGAGGAUAUGUGCGACAAAGUUGCACAGAAGGCACAUGAGGAUCACCCAUGUGAGCUAGGUCGAAAGACCUAGCG [Omei Exc(NG)1 Av7] (Eterna round: R96, puzzle: Exclusion NG 1)

>  <measuredParameter>
apparent KD of MS2 coat protein

>  <val>
17.3

$$$$
>  <constructSequence>
GUAAUUAAUGUAGGAUAUGCAAGGCGAACCUAAGCAGAAGGACAUGUGGAUCACCCAUGUAAUGCGGUCUGCGUACAGAUCGCU [salish99_ex1_NG1_002] (Eterna round: R96, puzzle: Exclusion NG 1)

>  <measuredParameter>
apparent KD of MS2 coat protein

>  <val>
103

$$$$
>  <constructSequence>
CGGGUGAACAGAGGAUAUCGUACAUGAGGAUCACCCAUGUAAUAAAUGAGAAUUUCGAAUGUAAUCGAGAAGGCUGGAAAACCC [Ostracism 93 - Jieux - Exclusion NG 2] (Eterna round: R96, puzzle: Exclusion NG 2)

>  <measuredParameter>
apparent KD of MS2 coat protein

>  <val>
115

$$$$
>  <constructSequence>
CAUUAUUAUCGAGGAUAUCCUAUUGUAAUACUGGGAGAAGGCGGACUCAACAUGAGGAUCACCCAUGUAAGACGGGUACUAGAU [Ex NG1 #22] (Eterna round: R96, puzzle: Exclusion NG 1)

>  <measuredParameter>
apparent KD of MS2 coat protein

>  <val>
139

$$$$
>  <constructSequence>
ACAUGAGGAUCACCCAUGUUGUACUGGAUAGGGUGGUCCAGGUAGGAUAUGCAAACGCGUUGCGAGCAGAAGGACCACAGCCAG [Ceed] (Eterna round: R96, puzzle: Exclusion NG 3)

>  <measuredParameter>
apparent KD of MS2 coat protein

>  <val>
29.4

$$$$
>  <constructSequence>
UAUAUAUAGUAAGGAUAUGUAUAUAUUUUAUAGACAGAAGGUACUGACAUGAGGAUCACCCAUGUUUUAGUGUGGGCAUGUAGA [JMF's solution 72] (Eterna round: R96, puzzle: Exclusion NG 1)

>  <measuredParameter>
apparent KD of MS2 coat protein

>  <val>
50.4

$$$$
>  <constructSequence>
AAUUAUUUUUGAGGAUAUCGUGGUGAAACACCACGAGAAGGCAAGAUACACAUGAGGAUCACCCAUGUGAGCCUGAUGCUUAUG [Ex NG1 #52] (Eterna round: R96, puzzle: Exclusion NG 1)

>  <measuredParameter>
apparent KD of MS2 coat protein

>  <val>
13.2

$$$$
>  <constructSequence>
UUUUUUGUUGUGAGGAUAUCGUUGUUGUUGUGGAUCGAGAAGGCACAUGAGGAUCACCCAUGUUUGUUGUGGUU [JR_BMOE4_Sub086] (Eterna round: R96, puzzle: Brourd's mod of Exclusion 4)

>  <measuredParameter>
apparent KD of MS2 coat protein

>  <val>
81.2

$$$$
>  <constructSequence>
CGAUAAAAGACAGGAUAUGAGGAGAGAGAGAGAUCAGAAGGGUCACAUGAGGAUCACCCAUGUGAGUUCUCGAUAAGAAACACC [Prohibition 53 - Jieux - Exclusion NG 1] (Eterna round: R96, puzzle: Exclusion NG 1)

>  <measuredParameter>
apparent KD of MS2 coat protein

>  <val>
14.5

$$$$
>  <constructSequence>
GGUCAGAUGGUAGGAUAUCCAUAUCGAGUGACCCUUUCAUAACAUGAGGAUCACCCAUGUCGGUGGGAGAAGGGCCGUAUGGCG [salish99_ExNG02_R04_022] (Eterna round: R96, puzzle: Exclusion NG 2)

>  <measuredParameter>
apparent KD of MS2 coat protein

>  <val>
34.9

$$$$
>  <constructSequence>
AGCUGUGGCCGAGGAUAUUGCGAACCAUGGAAAACCAUGGAAACUCUACAUGAGGAUCACCCAUGUAAGAAGGCGGUCUCAGCA [Eli eng2 - 025] (Eterna round: R96, puzzle: Exclusion NG 2)

>  <measuredParameter>
apparent KD of MS2 coat protein

>  <val>
10.7

$$$$

These entries and their values trace back to the supplement of paper PMC9170038.
